- Target Under Test: HSP90a protein (Homo sapiens, UniProt P07900)
- Construct: purchased BPS Bioscience 50298
- Assay Summary: HSP90α-binding fluorescent polarization (FP) assay, BODIPY-labeled RNK04010 probe
- Measurement Context: FP competition with RNK04010 (BODIPY-labeled), 5 nM, 300 min at 25° C.
pIC50: −log10 of the molar value.
Field: pIC50. Provide a value for each of the molecules that follow.

[[record]]
structure_smiles = "C=CC(=O)N1CCN(c2nc(OC[C@@H]3C[C@H](N4CCC(C(=O)N5CCN(Cc6ccc(-n7c(O)nnc7-c7cc(C(C)C)c(O)cc7O)cc6)CC5)CC4)CN3C)nc3c2CCN(c2cccc4cccc(Cl)c24)C3)C[C@@H]1CC#N"
result = "> 7.00"


Provide pIC50 values for the following items, in order.
1. C=C(F)C(=O)N1CCN(c2nc(OC[C@@H]3CCCN3CCCOCCC(=O)NCc3ccc(-n4c(O)nnc4-c4cc(C(C)C)c(O)cc4O)cc3)nc3c2CCN(c2cccc4cccc(Cl)c24)C3)C[C@@H]1CC#N
2. C=CC(=O)N1CCN(c2nc(OC[C@@H]3C[C@H](C(=O)N4CCN(Cc5ccc(-n6c(C(=O)NCC(F)(F)C(F)(F)F)nnc6-c6cc(C(C)C)c(O)cc6O)cc5)CC4)CN3C)nc3c2CCN(c2cccc4cccc(Cl)c24)C3)C[C@@H]1CC#N

-- reply
1. > 7.00
2. > 7.00

-- ask Enter pIC50 (test system HSP90a protein (Homo sapiens, UniProt P07900)) for `C=CC(=O)N1CCN(c2nc(NCCC(=O)NCc3ccc(-n4c(O)nnc4-c4ccc(O)cc4O)cc3)nc3c2CCN(c2cc(O)cc4ccccc24)C3)CC1`
-- reply < 6.00

* * *

- Test system: NCI-H358 human non-small cell lung cancer
- Assay Summary: NCI-H358 CCK-8 proliferation assay
- Assay type: cell-based
- Measurement Context: NCI-H358 cells, 72 hr
Assign EC50 to each entry below.

[[record]]
molecule = "C=CC(=O)N1CCN(c2nc(NCCC(=O)NCc3ccc(-n4c(O)nnc4-c4cc(C(C)C)c(O)cc4O)cc3)nc3c2CCN(c2cccc4ccccc24)C3)C[C@H]1CC#N [Compound 91, trifluoroacetic acid]"
result = "> 1000 nM"

[[record]]
molecule = "CCC(=O)N1CCN(c2nc(NCCC(=O)NCCc3ccc(CN4CCC(Cc5ccc(-n6c(C(=O)NCC(F)(F)F)nnc6-c6cc(C(C)C)c(O)cc6O)cc5)CC4)cc3)nc3c2CCN(c2cc(O)cc4ccccc24)C3)CC1 [Compound 149]"
result = "100 to 1000 nM"

[[record]]
molecule = "C=CC(=O)N1CCN(c2nc(NCCC(=O)N3CCC(CN4CCN(Cc5ccc(-n6c(O)nnc6-c6cc(C(C)C)c(O)cc6O)cc5)CC4)CC3)nc3c2CCN(c2cccc4ccccc24)C3)C[C@H]1CC#N [Compound 78]"
result = "100 to 1000 nM"


Go through the list and state EC50 for each entry.
1. CCC(=O)N1CCN(c2nc(OCC3CCN(C(=O)C4CCN(Cc5ccc(-n6c(O)nnc6-c6cc(C(C)C)c(O)cc6O)cc5)CC4)CC3)nc3c2CCN(c2cccc4cccc(Cl)c24)C3)C[C@@H]1CC#N [Compound 147]
2. C=CC(=O)N1CCN(c2nc(NCCC(=O)NCC3CCN(C(=O)C4CCN(Cc5ccc(-n6c(O)nnc6-c6cc(C(C)C)c(O)cc6O)cc5)CC4)CC3)nc3c2CCN(c2cccc4ccccc24)C3)C[C@H]1CC#N [Compound 101, trifluoroacetic acid]
3. C=C(F)C(=O)N1CCN(c2nc(N3CCC(CN4CCN(Cc5ccc(-n6c(O)nnc6-c6cc(CC)c(O)cc6O)cc5)CC4)CC3)nc3c2CCN(c2cccc4cccc(Cl)c24)C3)C[C@@H]1CC#N [Compound 135]
4. C=C(F)C(=O)N1CCN(c2nc(OC[C@@H]3CCN(C(=O)c4ccc(Nc5cc(-n6nc(C(F)(F)F)c7c6CC(C)(C)CC7=O)ccc5C(N)=O)cc4)C3)nc3c2CCN(c2cccc4cccc(Cl)c24)C3)C[C@@H]1CC#N [Compound 163]
5. C=CC(=O)N1CCN(c2nc(NCCC(=O)NCc3ccc(-n4c(O)nnc4-c4cc(C(C)C)c(O)cc4O)cc3F)nc3c2CCN(c2cccc4cccc(Cl)c24)C3)C[C@H]1CC#N [Compound 97, trifluoroacetic acid]
6. C=CC(=O)N1CCN(c2nc(NCCC(=O)NCc3ccc(-n4c(O)nnc4-c4cc(C(C)C)c(O)cc4O)cc3F)nc3c2CCN(c2cccc4ccccc24)C3)C[C@H]1CC#N [Compound 96, trifluoroacetic acid]

-- reply
1: 100 to 1000 nM; 2: > 1000 nM; 3: > 1000 nM; 4: > 1000 nM; 5: > 1000 nM; 6: > 1000 nM

The reported numbers originate from patent US20230391772A1.
